- Test system: Bone Marrow Derived Macrophages (BMDM)
- test_protocol: BMDM cell viability (CellTiter-Glo) after SMAC mimetic Compound A ± p38 or MK2 inhibitor
- Type: cell-based, mouse
- measurement_context: inhibitor 30 min then 500 nM Compound A, 24 h, FIG. 1C
measured_attribute: cell death induced by SMAC mimetics

For orientation, consider the following solved cases.
O=c1ncn2nc(Sc3ccc(F)cc3F)ccc2c1-c1c(Cl)cccc1Cl    dramatically increased
Cc1ccc(-c2ccc3c(ccc4sc5c(c43)NC[C@@H](C)NC5=O)n2)cn1    dramatically increased
CC(C)(C)Cn1c(N)nc2ccc(-c3[nH]c(C(C)(C)C)nc3-c3ccc(F)cc3)nc21    dramatically increased
CCc1nc(-c2cccc(C)c2)c(-c2ccnc(NC(=O)c3ccccc3)c2)s1    dramatically increased

Now, please, on to the next compound.
Challenge: Given the entry NC(=O)c1ccc(N(C(N)=O)c2c(F)cccc2F)nc1-c1ccc(F)cc1F , report its measured cell death induced by SMAC mimetics.
Response given: dramatically increased
